These measurements were taken from PubChem BioAssay (EPA / NIEHS).

Target: human Peroxisome Proliferator-activated Receptor delta (PPARd), PPARD (gene 5467)
Assay: ATG_PPARd_TRANS: Attagene TRANS-FACTORIAL HepG2 Assay for human Peroxisome Proliferator-activated Receptor delta (PPARd) (AID 2283002)
Records with an inconclusive call do not appear. The source made the active and inactive calls. The calls were made as follows: active = hit-call score of the fitted dose curve at least 0.9, where 1 is the maximum; inconclusive = response in the unintended direction; inactive = score below 0.9.
assayReadout: outcome

- compound: "CNC(=O)Oc1cccc(N=CN(C)C)c1"
  result: "inactive"
- compound: "COc1nn(CSP(=S)(OC)OC)c(=O)s1"
  result: "inactive"
- compound: "CC(C)(C)C(O)/C(=C\\c1ccc(Cl)cc1Cl)n1cncn1 (stereo not drawn)"
  result: "inactive"
- compound: "CC1(c2ccc(Oc3ccccc3)cc2)OC(=O)N(Nc2ccccc2)C1=O (stereo not drawn)"
  result: "inactive"
- compound: "COP(=S)(OC)Oc1ccc(SC)c(C)c1"
  result: "inactive"
- compound: "CC(C)N(C(=O)COc1nnc(C(F)(F)F)s1)c1ccc(F)cc1"
  result: "inactive"

query: Tell me the measured outcome of ClC1C(Cl)C(Cl)C(Cl)C(Cl)C1Cl (stereo not drawn) , please.
result: inactive

query: Same question for O=[N+]([O-])c1c(Cl)c(Cl)c(Cl)c(Cl)c1Cl please.
result: inactive

query: Same question, COC(=O)c1ccccc1CS(=O)(=O)NC(=O)Nc1nc(OC)cc(OC)n1 this time
result: inactive

query: # iterate: CCS(=O)(=O)c1cccnc1S(=O)(=O)NC(=O)Nc1nc(OC)cc(OC)n1
result: inactive

query: Could you do the same for CC(C)OC(=O)Nc1cccc(Cl)c1 , please?
result: inactive

query: Entry O=C(O)C(F)(F)C(F)(F)C(F)(F)C(F)(F)C(F)(F)C(F)(F)C(F)(F)F please
result: inactive

query: What do you get for COP(=O)(OC)OC=C(Cl)Cl ?
result: inactive

---

Read-out: ABC Transporter (ABCB1), ABCB1 (gene 5243)
Experiment: LTEA_HepaRG_ABCB1: Life Technologies and Expression Analysis (LTEA) Assay for ABC Transporter (ABCB1) using HepaRG (AID 2283460)
Conditions: mRNA level, 48 h; actives raise or lower the signal
Activity calls are given as the source filed them. Rule for the calls: active = hit-call score of the fitted dose curve at least 0.9, where 1 is the maximum; inactive = score below 0.9.
Pick from active, inactive when you respond.

query: Each molecule tested received a call. Report the one for O=S(=O)(O)C(F)(F)C(F)(F)C(F)(F)C(F)(F)C(F)(F)C(F)(F)C(F)(F)C(F)(F)F .
result: inactive

query: For O=C(Nc1ccccc1)Nc1cnns1 then?
result: inactive

query: What about this molecule? OCCOc1ccccc1
result: inactive

query: How about Oc1ccc(Cl)cc1Cc1ccccc1 ?
result: inactive

query: How about CCC(C)(NC(=O)c1cc(Cl)c(C)c(Cl)c1)C(=O)CCl (configuration not stated) ?
result: active

query: How about this molecule: CCC(C)(C)C(=O)OC1=C(c2ccc(Cl)cc2Cl)C(=O)OC12CCCCC2
result: inactive

query: CC1(c2ccc(Oc3ccccc3)cc2)OC(=O)N(Nc2ccccc2)C1=O (configuration not stated) , same question.
result: inactive

query: Continue with CC(C)N(C(=O)COc1nnc(C(F)(F)F)s1)c1ccc(F)cc1
result: inactive

query: Record: O=[N+]([O-])/N=C1\NCCN1Cc1ccc(Cl)nc1
result: active

query: How about this molecule: N#CN
result: inactive

query: Try this molecule too: O=C(NC(=O)c1c(F)cccc1F)Nc1ccc(OC(F)(F)C(F)OC(F)(F)F)c(Cl)c1 (configuration not stated)
result: inactive

query: Ok, now CCOCN(C(=O)CCl)c1c(C)cccc1CC
result: inactive
